Biological target: TSLP, Q969D9
Assay: Kd (SPR)
test.readout: pKd
// pKd here means minus log10 of the molar concentration (mol/L)

>  <binder>
unnamed (protein) chain 1: QMQLVESGGGVVQPGRSLRLSCAASGFTFSTYAMHWVRQAPGKGLEWVAVIWYDGSNKHYADSVKGRFTITRDNSKNTLNLQMNSLRAEDTAVYYCARAPRYDDAYEAFDVWGQGTMVTVSS chain 2: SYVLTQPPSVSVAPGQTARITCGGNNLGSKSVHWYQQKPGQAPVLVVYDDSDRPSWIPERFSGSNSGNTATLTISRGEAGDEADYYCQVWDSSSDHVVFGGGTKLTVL

>  <pKd>
6.43

$$$$
>  <binder>
unnamed (protein) chain 1: QMQLVESGGGVVQPGRSLRLSCAASGFTFRTYGMHWVRQAPGKGLEWVAVIWYDGSNKHYADSVKGRFTITRDNSKNTLNLQMNSLRAEDTAVYYCARAPRYDWYYEAFDVWGQGTMVTVSS chain 2: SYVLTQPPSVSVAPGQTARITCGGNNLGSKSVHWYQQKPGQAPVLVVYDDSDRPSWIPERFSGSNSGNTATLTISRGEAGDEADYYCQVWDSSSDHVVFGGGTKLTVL

>  <pKd>
7.32

$$$$

Turning to the following binder.
Provide pKd value for the following binder: unnamed (protein) chain 1: QMQLVESGGGVVQPGRSLRLSCAASGFTFSTFAMHWVRQAPGKGLEWVAVIWYDGSNKHYADSVKGRFTITRDNSKNTLNLQMNSLRAEDTAVYYCARAPRYDEYVEAFDVWGQGTMVTVSS chain 2: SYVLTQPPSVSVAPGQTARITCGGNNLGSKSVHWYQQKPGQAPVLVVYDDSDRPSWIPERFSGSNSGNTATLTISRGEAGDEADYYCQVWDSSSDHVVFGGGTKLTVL
6.89
